Reported MIC values for the following compounds.
System: Candida albicans
TEST_DESCRIPTION: Antifungal activity against Candida albicans clinical isolate after 24 hr by NCCLS broth macrodilution method
Assay type: functional
Field: value (include unit after the number)

Previously resolved entries follow.
CC1CCCCN1CC#CCn1nc(-c2ccc(Cl)cc2)n(-c2ccccc2)c1=O (centres undefined)	50 mg/L
CC1CCCC(C)N1CC#CCn1nc(-c2ccccc2)n(-c2cccc3ccccc23)c1=O (centres undefined)	50 mg/L
O=c1n(CC#CCN2CCCCC2)nc(-c2ccc(Cl)cc2)n1-c1ccccc1	25 mg/L

Query compound follows.
Sample `O=c1n(CC#CCN2CCCC2)nc(-c2ccccc2)n1-c1ccccc1` — what was its MIC?
25 mg/L

---

Reported MIC values for the following compounds.
Test system: Pseudomonas aeruginosa
TEST_DESCRIPTION: Antibacterial activity against Pseudomonas aeruginosa ATCC 27953 after 16 to 18 hr by NCCLS broth macrodilution method
Assay type: functional
Report as a plain number; the unit µg/mL is understood.

Previously resolved entries follow.
O=c1n(CC#CCN2CCCCCC2)nc(-c2ccccc2)n1-c1ccccc1	50
O=c1n(CC#CCN2CCCC2)nc(-c2ccccc2)n1-c1ccccc1	100
CC1CCCC(C)N1CC#CCn1nc(-c2ccccc2)n(-c2cccc3ccccc23)c1=O (centres undefined)	100

Sample `O=c1n(CC#CCN2CCCCCCC2)nc(-c2ccccc2)n1-c1cccc2ccccc12` — what was its MIC?
50

---

Test system: Pseudomonas aeruginosa
TEST_DESCRIPTION: Antibacterial activity against Pseudomonas aeruginosa ATCC 27953 after 16 to 18 hr by NCCLS broth macrodilution method
Format: functional
RECORDED_METRIC: MIC (µg/mL)
Report as a plain number; the unit µg/mL is understood.

CC1COc2c(N3CCN(C)CC3)c(F)cc3c(=O)c(C(=O)O)cn1c23 (stereo not given)	25
O=c1n(CC#CCN2CCCCCCC2)nc(-c2ccccc2)n1-c1ccccc1	25
O=c1n(CC#CCN2CCCCCC2)nc(-c2ccccc2)n1-c1cccc2ccccc12	50
CC1CCCC(C)N1CC#CCn1nc(-c2ccccc2)n(-c2ccccc2)c1=O (stereo not given)	50
CC1CCCN(CC#CCn2nc(-c3ccccc3)n(-c3cccc4ccccc34)c2=O)C1 (stereo not given)	100

Query compound follows.
Sample CC1CCCN(CC#CCn2nc(-c3ccccc3)n(-c3ccccc3)c2=O)C1 (stereo not given) — what was its MIC?
50

---

Reported MIC values for the following compounds.
System: Pseudomonas aeruginosa
TEST_DESCRIPTION: Antibacterial activity against Pseudomonas aeruginosa ATCC 27953 after 16 to 18 hr by NCCLS broth macrodilution method
Type: functional
Field: value (include unit after the number)

Previously resolved entries follow.
CC1CCCC(C)N1CC#CCn1nc(-c2ccc(Cl)cc2)n(-c2ccccc2)c1=O (centres undefined)	50 µg/mL
CC1CCCCN1CC#CCn1nc(-c2ccc(Cl)cc2)n(-c2ccccc2)c1=O (centres undefined)	100 µg/mL

Sample CC1CCCCN1CC#CCn1nc(-c2ccccc2)n(-c2ccccc2)c1=O (centres undefined) — what was its MIC?
100 µg/mL

Sample `O=c1n(CC#CCN2CCCCC2)nc(-c2ccc(Cl)cc2)n1-c1ccccc1` — what was its MIC?
100 µg/mL
